These entries and their values trace back to paper PMC10746543.

target under test: CDK12–cyclin K and DDB1 (Homo sapiens, UniProt Q16531+Q9NYV4, K965R)
Construct: His6–CDK12 (a.a. 713–1,052); full-length or beta-propeller B domain deletion (ΔBPB: a.a. 396–705 deleted) constructs of His6–DDB1ΔBPB, StrepII–Avi–DDB1, or His6–Spy–DDB1; made in house; host or cells: Trichoplusia ni High Five insect cells (baculovirus)
Sequence (Q9NYV4 713-1052 K965R): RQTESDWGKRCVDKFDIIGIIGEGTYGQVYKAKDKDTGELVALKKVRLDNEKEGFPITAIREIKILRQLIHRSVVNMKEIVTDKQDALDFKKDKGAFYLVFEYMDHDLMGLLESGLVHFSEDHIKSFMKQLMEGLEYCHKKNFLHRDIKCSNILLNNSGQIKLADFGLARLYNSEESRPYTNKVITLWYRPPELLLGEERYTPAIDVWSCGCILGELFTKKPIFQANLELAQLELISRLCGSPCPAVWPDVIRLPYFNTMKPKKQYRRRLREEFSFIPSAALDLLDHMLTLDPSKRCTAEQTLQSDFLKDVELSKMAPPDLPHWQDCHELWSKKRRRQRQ
Sequence (O75909 1-267 partner): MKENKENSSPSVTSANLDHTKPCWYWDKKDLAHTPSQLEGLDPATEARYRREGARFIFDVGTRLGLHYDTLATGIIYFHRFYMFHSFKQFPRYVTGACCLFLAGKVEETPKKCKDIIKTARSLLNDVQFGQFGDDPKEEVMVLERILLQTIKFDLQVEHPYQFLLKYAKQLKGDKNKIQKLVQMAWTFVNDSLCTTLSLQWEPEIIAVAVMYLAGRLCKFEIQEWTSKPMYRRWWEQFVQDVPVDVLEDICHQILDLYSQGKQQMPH
Sequence (Q16531 whole entry): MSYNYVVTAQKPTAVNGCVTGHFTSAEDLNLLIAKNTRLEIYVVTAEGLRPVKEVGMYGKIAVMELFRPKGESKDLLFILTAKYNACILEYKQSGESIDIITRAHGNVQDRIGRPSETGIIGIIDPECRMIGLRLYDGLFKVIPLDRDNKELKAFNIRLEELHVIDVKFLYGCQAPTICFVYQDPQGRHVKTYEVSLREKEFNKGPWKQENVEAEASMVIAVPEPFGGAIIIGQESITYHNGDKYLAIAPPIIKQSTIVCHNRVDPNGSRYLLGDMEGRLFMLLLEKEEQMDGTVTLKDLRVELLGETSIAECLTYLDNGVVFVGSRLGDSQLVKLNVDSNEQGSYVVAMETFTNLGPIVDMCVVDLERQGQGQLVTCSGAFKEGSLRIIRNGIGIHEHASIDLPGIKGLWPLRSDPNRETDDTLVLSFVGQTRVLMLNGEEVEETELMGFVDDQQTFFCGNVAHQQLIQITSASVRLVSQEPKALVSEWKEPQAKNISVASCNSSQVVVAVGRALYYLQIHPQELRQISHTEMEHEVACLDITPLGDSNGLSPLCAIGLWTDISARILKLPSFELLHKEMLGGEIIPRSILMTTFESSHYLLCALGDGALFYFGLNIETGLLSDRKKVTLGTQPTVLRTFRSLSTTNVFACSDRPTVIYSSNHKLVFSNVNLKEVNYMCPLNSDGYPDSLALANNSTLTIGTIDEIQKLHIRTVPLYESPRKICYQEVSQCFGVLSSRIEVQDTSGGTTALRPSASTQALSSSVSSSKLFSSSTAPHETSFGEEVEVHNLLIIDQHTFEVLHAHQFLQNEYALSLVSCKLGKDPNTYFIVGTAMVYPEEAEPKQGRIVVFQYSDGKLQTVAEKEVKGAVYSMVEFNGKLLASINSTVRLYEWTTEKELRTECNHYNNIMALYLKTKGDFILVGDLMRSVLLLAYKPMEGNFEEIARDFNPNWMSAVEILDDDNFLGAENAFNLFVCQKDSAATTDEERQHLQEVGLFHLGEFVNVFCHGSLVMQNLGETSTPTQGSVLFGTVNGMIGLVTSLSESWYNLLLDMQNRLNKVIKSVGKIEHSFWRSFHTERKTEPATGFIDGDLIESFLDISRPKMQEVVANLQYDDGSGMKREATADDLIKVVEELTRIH
assay name: TR-FRET Kd determination, quadratic fit, 50 nM or 10 nM CDK12–cyclin K
Assay type: binding
assay setup: 10 nM CDK12-cyclin K; compound 2.16 nM
Some molecules, each annotated with its measured TR-FRET signal.

Below, each entry is followed by its recorded TR-FRET signal result.
CC[C@H](CO)Nc1nc(NCc2nc3cc(Cl)c(Cl)cc3[nH]2)c2ncn(C(C)C)c2n1 ... 0.2552
Cc1cc2nc(CNc3nc(N4CCN(C)CC4)nc4c(Br)cnn34)[nH]c2cc1C [DS73, reference compound] ... 0.172
CCC(CO)Nc1nc(NCc2ccc(-c3ccccc3)cc2)c2ncn(C(C)C)c2n1 (stereo not shown) ... 0.1516

Ask: Entry CCC(CO)Nc1nc(NCc2ccc(-c3ccccn3)cc2)c2ncn(C(C)C)c2n1 (stereo not shown) [CR8, reference compound] has what TR-FRET signal?
Reply: 0.135

###

Tested on: cyclin K–eGFP degradation reporter
assay name: Cyclin K reporter stability analysis (dual-color cyclin K–eGFP reporter)
Format: cell-based, human
assay setup: source data sheet correlations; read-out: DC50
endpoint name: DC50
Report as: number unit

CC(C)n1cnc2c(NCc3ccc(-c4ccccn4)cc3)nc(N[C@@H](Cc3ccc(OCc4ccccc4)cc3)c3nnc[nH]3)nc21 [DS58] ... 2020 nM
CC[C@H](CO)Nc1nc(NCCCc2ccc(Cl)c(Cl)c2)c2ncn(C(C)C)c2n1 [DS65] ... 103 nM
CN1CCN(c2nc(NCc3nc4c(F)c(F)ccc4[nH]3)n3ncc(Br)c3n2)CC1 [DS71] ... 4 nM
CC[C@H](CO)Nc1nc(NCc2nc3c(F)c(F)ccc3[nH]2)c2ncn(C(C)C)c2n1 [DS64] ... 62 nM
CC[C@H](CO)Nc1nc(NCc2nc3cc(Cl)c(Cl)cc3[nH]2)c2ncn(C(C)C)c2n1 [DS17] ... 12 nM

Ask: Entry CC[C@H](CO)Nc1nc(NCc2nc3cc(Cl)c(Cl)cc3[nH]2)c2ncn(-c3cnn(C)c3)c2n1 [DS22] has what DC50?
Reply: 109 nM

Ask: Entry CC(C)c1nn(-c2c(Cl)cccc2Cl)c2nc(Cc3ccc(OCCO)cc3)[nH]c(=O)c12 [compound 21195] has what DC50?
Reply: 26 nM

Ask: Entry CC[C@H](CO)Nc1nc(NCCCc2cccc(O)c2)c2ncn(C(C)C)c2n1 [DS68] has what DC50?
Reply: 571 nM

Ask: Entry CC[C@H](CO)Nc1nc(NCCCc2cccc(C)n2)c2ncn(C(C)C)c2n1 [DS69] has what DC50?
Reply: 217 nM

Ask: Entry C[C@H](C(=O)Nc1nc2ccccc2[nH]1)N1Cc2ccccc2C1=O [compound 919278] has what DC50?
Reply: 176 nM

Ask: Entry Cc1ccc(C(=O)N2CSCC2C(=O)Nc2ncc(C)s2)o1 (stereo not shown) [dCeMM4] has what DC50?
Reply: 1210 nM
